- Test system: Melanocytes (B16 cell line)
- protocol_description: Melanogenesis inhibition assay (melanin level and cellular protein level)
- Type: cell-based
- test_conditions: dose 0.003 % (w/v), 3 days incubation, cellular proteins (Bradford) as number of viable cells
For each entry below, report its Protein level value.
Answers are plain numbers, in %/control.

{"columns": ["molecule", "target_desc", "property_measured", "observed_value"],
 "data": [
  ["COc1ccc2[nH]cc(CC(N)C(=O)O)c2c1 (racemic)", "Melanocytes (B16 cell line)", "Protein level", 92]
]}

List the reported Protein level of each molecule below.
1. Cc1cccc2[nH]cc(CC(N)C(=O)O)c12 (racemic)
2. Cc1ccc2c(CC(N)C(=O)O)c[nH]c2c1 (racemic)
3. NC(Cc1c[nH]c2cc(F)ccc12)C(=O)O (racemic)

-- reply
100
102
108

Measured values drawn from patent US20110236330A1 for this set.
